In this section we review reported % Viability at 1 μg/mL values for a set of compounds.
# Test system: Jurkat cells
# EXPERIMENT DESCRIPTION: (r) Cell cytotoxicity assay
# Type: cell-based, human
# PARTICULARS: 1 μg/mL, 24 hours

| QUERY SMILES | % Viability at 1 μg/mL / % |
| --- | --- |
| COc1cc(Nc2cc(Oc3ccc(NC(=O)Nc4cc(NS(C)(=O)=O)cc(C(C)(C)C)c4)c4ccccc34)ccn2)ccc1C(=O)NCCN1CCN(C)CC1 | 98.5 |
| COc1cc(Nc2cc(Oc3ccc(NC(=O)Nc4cc(C(C)(C)C)cc(NS(C)(=O)=O)c4OC)c4ccccc34)ccn2)ccc1C(=O)N[C@@H]1CCN(C)C1 | 74.3 |
| COc1cc(Nc2cc(Oc3ccc(NC(=O)Nc4cc(C(C)(C)C)cc(NS(C)(=O)=O)c4OC)c4ccccc34)ccn2)ccc1S(=O)(=O)N(C)CCCN1CCN(C)CC1 | 91.8 |
| COc1cc(Nc2cc(Oc3ccc(NC(=O)Nc4cc(C(C)(C)C)cc(NS(C)(=O)=O)c4OC)c4ccccc34)ccn2)ccc1C(=O)NC(CO)(CO)CO | 95.9 |
| COCCN(C)CCNC(=O)c1ccc(Nc2cc(Oc3ccc(NC(=O)Nc4cc(C(C)(C)C)cc(NS(C)(=O)=O)c4OC)c4ccccc34)ccn2)cc1OC | 101.4 |
| COc1cc(Nc2cc(Oc3ccc(NC(=O)Nc4cc(C(C)(C)C)cc(NS(C)(=O)=O)c4OC)c4ccccc34)ccn2)ccc1C(=O)NCCC1CCNCC1 | 101.2 |

* * *

# System: Jurkat cells
# EXPERIMENT DESCRIPTION: (r) Cell cytotoxicity assay
# Assay type: cell-based, human
# PARTICULARS: 5 μg/mL, 24 hours
In this section we review reported % Viability at 5 μg/mL values for a set of compounds.
READOUT: % Viability at 5 μg/mL (%)

| COMPOUND | OBSERVED RESULT |
| --- | --- |
| COc1cc(Nc2cc(Oc3ccc(NC(=O)Nc4cc(C(C)(C)C)cc(NS(C)(=O)=O)c4OC)c4ccccc34)ccn2)ccc1C(=O)NCCN1CCSCC1 | 102.7 |
| COc1cc(Nc2cc(Oc3ccc(NC(=O)Nc4cc(C(C)(C)C)cc(NC(=O)CO)c4OC)c4ccccc34)ccn2)ccc1C(=O)NCCN1CC[S+]([O-])CC1 | 67.3 |
| COc1cc(Nc2cc(Oc3ccc(NC(=O)Nc4cc(C(C)(C)C)cc(NS(C)(=O)=O)c4OC)c4ccccc34)ccn2)ccc1C(=O)NCCOCCOCCO | 52.5 |
| COc1cc(Nc2cc(Oc3ccc(NC(=O)Nc4cc(C(C)(C)C)cc(NS(C)(=O)=O)c4OC)c4ccccc34)ccn2)ccc1C(=O)NCCN1CCN(C(=O)CCC(=O)O)CC1 | 96.1 |
| COc1cc(Nc2cc(Oc3ccc(NC(=O)Nc4cc(C(C)(C)C)cc(NS(C)(=O)=O)c4OC)c4ccccc34)ccn2)ccc1C(=O)NCCN1CCN(C(=O)CC[C@H](N)C(=O)O)CC1 | 94.0 |
| COc1cc(Nc2cc(Oc3ccc(NC(=O)Nc4cc(C(C)(C)C)cc(NS(C)(=O)=O)c4OC)c4ccccc34)ccn2)ccc1C(=O)NC[C@@H]1O[C@H](CO)[C@@H](O)[C@H](O)[C@H]1O | 93.3 |
| COc1cc(Nc2cc(Oc3ccc(NC(=O)Nc4cc(C(C)(C)C)cc(NS(C)(=O)=O)c4OC)c4ccccc34)ccn2)ccc1C(=O)NCCN1CCN(C2CC2)CC1 | 84.6 |
| COc1cc(Nc2cc(Oc3ccc(NC(=O)Nc4cc(C(C)(C)C)cc(NS(C)(=O)=O)c4OC)c4ccccc34)ccn2)cc(OC)c1C(=O)NCC1CCN(C)CC1 | 94.0 |
| COc1cc(Nc2cc(Oc3ccc(NC(=O)Nc4cc(C(C)(C)C)cc(NS(C)(=O)=O)c4OC)c4ccccc34)ccn2)ccc1C(=O)NCCN1CCCCC1 | 49.9 |
| COc1cc(Nc2cc(Oc3ccc(NC(=O)Nc4cc(C(C)(C)C)cc(NS(C)(=O)=O)c4OC)c4ccccc34)ccn2)ccc1C(=O)NCC1CCN(C)CC1 | 69.5 |
| COc1cc(Nc2cc(Oc3ccc(NC(=O)Nc4cc(C(C)(C)C)cc(NS(C)(=O)=O)c4OC)c4ccccc34)ccn2)ccc1C(=O)NCCN1CC[C@@H](O)C1 | 18.0 |
| COc1cc(Nc2nccc(Oc3ccc(NC(=O)Nc4cc(C(C)(C)C)cc(NS(C)(=O)=O)c4OC)c4ccccc34)n2)ccc1C(=O)NCCC1CCN(C)CC1 | 37.9 |
| COc1c(NC(=O)Nc2ccc(Oc3ccnc(Nc4ccc(C(=O)O)c(N(C)C)c4)n3)c3ccccc23)cc(C(C)(C)C)cc1NS(C)(=O)=O | 89.2 |
| COc1cc(Nc2cc(Oc3ccc(NC(=O)Nc4cc(C(C)(C)C)cc(NS(C)(=O)=O)c4OC)c4ccccc34)ccn2)ccc1C(=O)NCCC(=O)N1C[C@H](O)[C@@H](O)[C@H](O)[C@H]1CO | 96.7 |
| COc1cc(Nc2cc(Oc3ccc(NC(=O)Nc4cc(C(C)(C)C)cc(NS(C)(=O)=O)c4OC)c4ccccc34)ccn2)cc(OC)c1C(=O)NCCN1CCN(CCO)CC1 | 55.8 |
| COc1cc(Nc2cc(Oc3ccc(NC(=O)Nc4cc(C(C)(C)C)cc(NS(C)(=O)=O)c4OC)c4ccccc34)ccn2)ccc1C(=O)NCCN1CCN(C)CC1(C)C | 0.8 |
| COc1c(NC(=O)Nc2ccc(Oc3ccnc(Nc4ccc(P(C)(=O)O)c(N(C)C)c4)c3)c3ccccc23)cc(C(C)(C)C)cc1NS(C)(=O)=O | 92.7 |
| COc1cc(Nc2nccc(Oc3ccc(NC(=O)Nc4cc(C(C)(C)C)cc(NS(C)(=O)=O)c4OC)c4ccccc34)n2)ccc1C(=O)NCCN1CCN(C)CC1 | 0.2 |
| COc1cc(Nc2cc(Oc3ccc(NC(=O)Nc4cc(NS(C)(=O)=O)cc(C(C)(C)C)c4)c4ccccc34)ccn2)ccc1C(=O)NCCC1CCN(C)CC1 | 48.7 |
| COc1cc(Nc2cc(Oc3ccc(NC(=O)Nc4cc(C(C)(C)C)cc(NS(C)(=O)=O)c4OC)c4ccccc34)ccn2)ccc1C(=O)NCCO | 65.6 |
| COc1cc(Nc2cc(Oc3ccc(NC(=O)Nc4cc(C(C)(C)C)cc(NC(=O)COP(=O)(O)O)c4OC)c4ccccc34)ccn2)ccc1C(=O)NCCN1CC[S+]([O-])CC1 | 96.9 |
| COc1cc(Nc2cc(Oc3ccc(NC(=O)Nc4cc(C(C)(C)C)cc(NS(C)(=O)=O)c4OC)c4ccccc34)ccn2)ccc1C(=O)NC(C)CN1CCN(C)CC1 (stereo not shown) | 0.2 |
